Target: T1, human GLP-2R (glucagon-like peptide-2 receptor) (human, UniProt O95838 1-553)
T1 sequence (looked up): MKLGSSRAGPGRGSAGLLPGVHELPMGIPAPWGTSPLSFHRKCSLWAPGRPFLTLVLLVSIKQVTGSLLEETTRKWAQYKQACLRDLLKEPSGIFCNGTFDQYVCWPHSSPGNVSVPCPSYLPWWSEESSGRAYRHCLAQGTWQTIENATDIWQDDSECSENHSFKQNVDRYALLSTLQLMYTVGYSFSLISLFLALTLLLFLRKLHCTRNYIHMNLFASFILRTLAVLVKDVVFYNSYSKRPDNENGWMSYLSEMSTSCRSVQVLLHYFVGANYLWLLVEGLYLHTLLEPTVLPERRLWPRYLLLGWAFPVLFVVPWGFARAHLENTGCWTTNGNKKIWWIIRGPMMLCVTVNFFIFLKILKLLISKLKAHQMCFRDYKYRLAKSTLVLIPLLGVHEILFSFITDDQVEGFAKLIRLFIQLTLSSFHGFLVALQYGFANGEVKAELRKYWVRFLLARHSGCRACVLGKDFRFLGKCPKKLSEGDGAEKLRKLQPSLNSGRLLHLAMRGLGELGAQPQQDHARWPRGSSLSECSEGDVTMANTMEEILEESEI
Assay: cell-based or functional assay
*1 amine or outer side, *2 acyl side, *3 side chain or, on linkers, in order; H or OH if unused. Where no end group is shown, it is not given here. Side-chain parts run from the residue outwards. [ ]: non-standard residue; d: D form. The star is where a group is joined. C18 diacid = O=C(O)CCCCCCCCCCCCCCCCC(=O)*; γGlu = O=C(O)[C@H](CCC(=O)[*:2])N[*:1]; Decanoyl = CCCCCCCCCC(=O)*; AEEA = NCCOCCOCC(=O)O; Aib = CC(C)(N)C(=O)O
measure: EC50 (nM) GLP-2R

>  <binder>
HADGTFTSDYSIILDK([AEEA-AEEA-γGlu-C18 diacid])LAARDFINWLIQTKGKKNDWKHNITQ-OH [Compound 20]

>  <measure>
EC50 (nM) GLP-2R

>  <value>
0.3

$$$$
>  <binder>
HADGTFTSDYSTILDKLAARDFINWLIQTKGKKNDWK([AEEA-AEEA-γGlu-C18 diacid])HNITQ-OH [Compound 25]

>  <measure>
EC50 (nM) GLP-2R

>  <value>
7.9

$$$$
>  <binder>
H[Aib]EGTFISDYSTILDNLAARDFINWLIQTKITK(Decanoyl)-NH2 [Compound 11]

>  <measure>
EC50 (nM) GLP-2R

>  <value>
25.1

$$$$
